assay: Drug repurposing screens with cells derived from glioblastoma tumor samples (AID 1345199); conditions: GBM patient neurospheres viability, ATP luminescence, 48 h; at 45.9 µM (top of the series); tumour line D; further: on the % scale 0 is the no-effect control and ±100 the full control effect
Inconclusive results are not listed.
result_type: activity, negative = cell killing (%)
Numbers only, in %.

Examples with answers:
>  <compound>
O=C1C[C@@H]2OCC=C3CN4CC[C@]56c7ccccc7N1[C@H]5[C@H]2[C@H]3C[C@H]46

>  <result_unit>
%

>  <activity, negative = cell killing>
-6.6

$$$$
>  <compound>
C=CCN(C1=NCCN1)c1c(Cl)cccc1Cl

>  <result_unit>
%

>  <activity, negative = cell killing>
-0.731

$$$$

Look at each compound and report its activity, negative = cell killing.
1. O=C(O)C(Cl)(Cl)Cl
2. CN1CCCC(=C(c2cccs2)c2cccs2)C1
3. C[C@]12CC[C@H]3[C@@H](CC[C@@]45O[C@@H]4C(O)=C(C#N)C[C@]35C)[C@@H]1CC[C@@H]2O
4. C[C@H]1CC[C@]2(NC1)O[C@H]1C[C@H]3[C@@H]4CC[C@H]5C[C@@H](O)CC[C@]5(C)[C@H]4CC[C@]3(C)[C@H]1[C@@H]2C
5. C#CCN1CC(=O)N(COC(=O)C2C(C=C(C)C)C2(C)C)C1=O (stereo not given)
6. OC[C@@H](O)[C@H]1O[C@@H]2O[C@@H](C(Cl)(Cl)Cl)O[C@@H]2[C@H]1O
7. Cc1cccc(C(C)c2cnc[nH]2)c1C (stereo not given)
8. O=C1CN(O)C(c2ccccc2)=c2cc(Cl)ccc2=N1

Result:
1. 4.24
2. -24.1
3. -21.9
4. -28.2
5. 15.2
6. -1.55
7. 6.82
8. -10.4
